- TESTED_ON: T1, Histidine-tagged human PD-1 protein (hPD-1-His) (human, UniProt Q15116 25-170, limits assumed)
- T1 construct: Soluble analyte in SPR; not shown: histidine tag
- TEST_DESCRIPTION: SPR (Biacore T200), antibody captured on Protein A chip, hPD-1-His analyte, 1:1 fit
Provide the reported Kd of each item.
Remember to put the unit after the number in your answer.

BINDER	OBSERVED_PROPERTY	MEASURED
3F1-mHvKv-IgG4-S228P (antibody, V domains shown, Chimeric antibody: mouse 3F1 variable domains, human IgG4 constant domains (CL, CH1, CH2, CH3) with S228P (EU numbering); also called 18-3F1-mHvKv-IgG4-S228P; 3F1-mHyKy-IgG4-S228P) VH: QVQLQQSGAELAKPGASVKMSCKASGYTFTSYWMHWVKQRPGQGLEWIGYINPSTGYTEYNQKFKDKATLTADKSSSTAYMQLSSLTSEDSAVYYCARGVRYYFDYWGQGTTLTVSS VL: DIVMSQSPSSLAVSAGEKVTMSCKSSQSLLNSRTRKNYLAWYQQKPGQSPKLLIYWASTRESGVPDRFTGSGSGTDFTLTISSVQAEDLAVYYCKQSYNLLTFGAGTKLELK	Kd	346 nM

Here is the next item to consider.
[in] Endpoint output: Kd of 1A7-H3K3-IgG4-S228P (antibody, V domains shown, Humanized; human IgG4 constant domains with S228P (EU numbering)) VH: EVKLVESGGGLVQPGGSLRLSCAASGFTFSSYSMSWVRQAPGKRLEWVAHISSGGSSTYYPDTVKGRFTISRDNSKNTLYLQMNSLRAEDTAMYYCTRQFYYGSSFWYFDVWGAGTTVTVSS VL: DNVLTQSPATLSVSPGERATLSCKASQSVDFDGDSYMNWYQQKPGQPPRLLIYAASNLESGIPARFSGSGSGTDFTLTISSVEPEDFATYYCQQSNEDPPTFGGGTKVEIK . Value?
[out] 12.9 nM
